Recorded values, source patent US7265103B2.

Target: hα2C receptor (Homo sapiens)
Construct: expressed in transfected cells; host or cells: CHO cells
Sequence (P18825 whole entry): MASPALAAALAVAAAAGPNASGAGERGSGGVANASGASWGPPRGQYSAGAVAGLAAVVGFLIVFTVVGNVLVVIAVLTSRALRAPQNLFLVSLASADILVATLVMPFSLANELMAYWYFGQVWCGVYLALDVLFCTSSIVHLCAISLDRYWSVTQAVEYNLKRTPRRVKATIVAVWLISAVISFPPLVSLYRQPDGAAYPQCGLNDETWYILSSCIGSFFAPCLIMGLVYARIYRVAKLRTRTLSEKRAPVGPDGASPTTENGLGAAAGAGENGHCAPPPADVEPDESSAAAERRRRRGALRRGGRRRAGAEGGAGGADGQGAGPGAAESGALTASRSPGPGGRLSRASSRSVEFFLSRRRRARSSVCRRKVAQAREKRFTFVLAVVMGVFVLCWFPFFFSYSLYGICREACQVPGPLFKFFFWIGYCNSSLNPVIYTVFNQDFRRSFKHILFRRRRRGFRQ
Experiment: Radioligand binding experiment for α2C-adrenergic receptor ([3H]-raulwolscine)
Conditions: CHO cell membranes with human α2C receptor, [3H]raulwolscine 1 nM; read-out: pIC50 α2C (converted)
Procedure: The interaction of the compounds of Formula (I) with hα2-receptors and h5-HT-transporters was assessed in in vitro radioligand binding experiments. […] When equilibrium of binding is reached, the receptor bound radioactivity is separated from the non-bound radioactivity, and the receptor- or transporter-bound activity is counted. The interaction of the test compounds with the receptor is assessed in competition binding experiments. […]
OBSERVABLE: IC50 (nM)

- CC(=Cc1ccc(F)cc1)CN1CCN(CC2ON=C3c4ccc(N5CCOCC5)cc4OCC32)CC1 (stereo not shown): 1.26
- CNc1ccc2c(c1)OCC1C2=NOC1CN1CCN(CC(C)=Cc2ccccc2)CC1 (stereo not shown): 3.16
- COc1cc2c(cc1NCCN1CCCC1)OCC1C2=NOC1CN1CCN(CC(C)=Cc2ccc(F)cc2)CC1 (stereo not shown): 1.58
- CCNc1cc2c(cc1OC)C1=NOC(CN3CCN(CC(C)=Cc4ccc(F)cc4)CC3)C1CO2 (stereo not shown): 31.6
- CC(=Cc1ccc(F)cc1)CN1CCN(CC2ON=C3c4ccc(N(C)CCNCC(C)O)cc4OCC32)CC1 (stereo not shown): 3.16
- CC(=Cc1ccc(F)cc1)CN1CCN(CC2ON=C3c4ccc(NC(N)=O)cc4OCC32)CC1 (stereo not shown): 10
- COc1cc2c(cc1NCCN1CCCC1)OCC1C2=NOC1CN1CCN(CC(C)=Cc2cccc(F)c2)CC1 (stereo not shown): 3.16
- COc1cc2c(cc1NC(=O)C1CC1)OCC1C2=NOC1CN1CCN(CC(C)=Cc2ccccc2)CC1 (stereo not shown): 0.631
- CC(=Cc1ccc(F)cc1)CN1CCN(CC2ON=C3c4ccc(N5CCC5=O)cc4OCC32)CC1 (stereo not shown): 1.26
- C=CC(=O)Nc1cc2c(cc1OC)C1=NOC(CN3CCN(CC(C)=Cc4ccc(F)cc4)CC3)C1CO2 (stereo not shown): 12.6
- CCNc1ccc2c(c1)OCC1C2=NOC1CN1CCN(CC(C)=Cc2ccccc2)CC1 (stereo not shown): 1.26
- CC(=Cc1ccc(F)cc1)CN1CCN(CC2ON=C3c4ccc(N(C)CCOC(=O)CC(C)(C)C)cc4OCC32)CC1 (stereo not shown): 126
- CNc1cc2c(cc1OC)C1=NOC(CN3CCN(CC(C)=Cc4ccccc4)CC3)C1CO2 (stereo not shown): 1.26
- CNc1cc2c(cc1OC)C1=NOC(CN3CCN(CC(C)=Cc4cccc(F)c4)CC3)C1CO2 (stereo not shown): 2
- COc1cc2c(cc1Nc1ccncc1)OCC1C2=NOC1CN1CCN(CC(C)=Cc2ccc(F)cc2)CC1 (stereo not shown): 5.01
- CC(=Cc1ccc(F)cc1)CN1CCN(CC2ON=C3c4ccc(N5CCN(C)CC5)cc4OCC32)CC1 (stereo not shown): 2.51
